# EXPERIMENTAL_SYSTEM: organic cation transporter 1 (OCT1/SLC22A1) (Homo sapiens)
# Sequence (O15245 whole entry): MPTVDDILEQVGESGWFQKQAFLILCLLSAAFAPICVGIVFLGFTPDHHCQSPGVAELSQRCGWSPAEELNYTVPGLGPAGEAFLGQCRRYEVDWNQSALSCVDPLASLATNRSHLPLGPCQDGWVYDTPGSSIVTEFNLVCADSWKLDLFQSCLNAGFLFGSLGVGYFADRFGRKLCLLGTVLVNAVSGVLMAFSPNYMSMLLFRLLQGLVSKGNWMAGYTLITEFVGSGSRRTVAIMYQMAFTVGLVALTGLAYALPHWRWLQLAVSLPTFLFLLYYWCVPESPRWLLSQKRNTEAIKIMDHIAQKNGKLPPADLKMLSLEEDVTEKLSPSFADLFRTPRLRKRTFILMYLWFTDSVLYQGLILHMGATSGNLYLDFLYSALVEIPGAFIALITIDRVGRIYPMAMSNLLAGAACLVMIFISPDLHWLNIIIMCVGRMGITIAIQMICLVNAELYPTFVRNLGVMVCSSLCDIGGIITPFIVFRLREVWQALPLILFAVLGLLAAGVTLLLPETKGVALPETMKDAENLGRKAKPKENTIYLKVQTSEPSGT
# PROTOCOL_TEXT: inhibition of OCT1-specific [3H]atenolol uptake in MDCKII cells stably expressing OCT1
# Format: cell-based

{"COMPOUND": "O=C(CCc1ccc(O)cc1)c1c(O)cc(O)cc1O [phloretin]", "EXPERIMENTAL_SYSTEM": "organic cation transporter 1 (OCT1/SLC22A1) (Homo sapiens)", "UNIT_TEXT": "µM", "Ki": 38}
